Quick reference: protein stability index of the listed items.
B1: FOXJ1 (parent)
chain: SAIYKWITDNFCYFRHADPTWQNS

- Variants of: B1
- Experimental details: protein stability index of a GFP-peptide fusion (GPS, HEK-293T) (PSI 1-6); higher = more stable;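 also: lentivirally expressed fusions sorted by FACS into six bins by GFP to DsRed ratio, PSI derived from sequencing read proportions per bin multiplied by bin number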
- Conditions used: c terminus: a fixed tail appended

Mutation name: R15W
protein stability index: 2.97
--
Mutation name: R15L
protein stability index: 2.95
--
Mutation name: N23P
protein stability index: 3.02
--
Mutation name: Y4L
protein stability index: 2.95
--
Mutation name: S24T
protein stability index: 2.96
--
Mutation name: S24E
protein stability index: 2.97
--
Mutation name: D9S
protein stability index: 3.04
--
Mutation name: K5Q
protein stability index: 2.99
